Attribution: PubChem BioAssay (NCI)

- PROTOCOL: NCI Yeast Anticancer Drug Screen. Data for the wt1 strain (AID 149);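 note: 0% = growth of vehicle-treated wt1 cultures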
- CONDITION PARAMETERS: S. cerevisiae wt1 strain (SPY 50644) growth inhibition; at 33.0 µM
Compounds without any hit were thinned out: in the full panel of roughly 79,000, 15% have a hit. The source made the active and inactive calls. Cut-off read from the data, not from the text of the source: active = growth inhibition above about 70%; inactive = the rest.
Outcome codes: active, inactive

>  <MOLECULE>
CC(C)[Si]1(C(C)C)OCC2OC(n3cnc4c(N)ncnc43)C(N)C2O[Si](C(C)C)(C(C)C)O1 (stereo not drawn)

>  <ASSIGNED CATEGORY>
active

$$$$
>  <MOLECULE>
CCOC(=S)SSSC(=S)OCC

>  <ASSIGNED CATEGORY>
active

$$$$
>  <MOLECULE>
CCCCCCNCCCNc1c2ccccc2nc2cccc([N+](=O)[O-])c12

>  <ASSIGNED CATEGORY>
inactive

$$$$
>  <MOLECULE>
CCN(CC)CCNc1ccc(C)c2sc3ccc(O)cc3c(=O)c12

>  <ASSIGNED CATEGORY>
active

$$$$
>  <MOLECULE>
COC(=O)C1=C(C(=O)OC)CC(n2nnc(C(=O)OC)c2C(=O)OC)=CC1

>  <ASSIGNED CATEGORY>
inactive

$$$$
>  <MOLECULE>
CCC(C)COC(=O)Nc1cccc(Cl)c1 (stereo not drawn)

>  <ASSIGNED CATEGORY>
inactive

$$$$
>  <MOLECULE>
CNC(=S)N/N=C(/C)CCC/C(C)=N/NC(=S)NC

>  <ASSIGNED CATEGORY>
inactive

$$$$
>  <MOLECULE>
Cc1ccc(S(=O)(=O)NC(=O)C2C(=O)CC3(CCCCC3)CC2=O)cc1

>  <ASSIGNED CATEGORY>
inactive

$$$$

---

- PROTOCOL: NCI Yeast Anticancer Drug Screen. Data for the wt1 strain (AID 149);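 note: 0% = growth of vehicle-treated wt1 cultures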
- CONDITION PARAMETERS: S. cerevisiae wt1 strain (SPY 50644) growth inhibition; at 11.0 µM; hits give high values
About 79,000 compounds went through this panel and 15% of them were active in at least one assay; those are over-represented in the sample as a whole.

>  <MOLECULE>
CCCNC(=O)OCc1c(COC(=O)NCCC)c(-c2ccc(Cl)c(Cl)c2)n2c1CCC2

>  <growth inhibition [%]>
-35

$$$$
>  <MOLECULE>
CSC(=S)N/N=C/c1ccccc1

>  <growth inhibition [%]>
29

$$$$
>  <MOLECULE>
NNc1ccccc1-c1nc2ccccc2[nH]1

>  <growth inhibition [%]>
-5

$$$$
>  <MOLECULE>
O=C(C(Cl)=C(N1CCCCC1)N1CCCCC1)C(Cl)Cl

>  <growth inhibition [%]>
-1

$$$$
>  <MOLECULE>
O=C1Nc2ccc(Br)cc2C1=Nc1ccc(Cl)cc1

>  <growth inhibition [%]>
14

$$$$
>  <MOLECULE>
O=S(=O)(c1cccc(C(F)(F)F)c1)N1c2ccccc2-n2cccc2C1c1cccnc1 (stereo unspecified)

>  <growth inhibition [%]>
55

$$$$
>  <MOLECULE>
COC1=CCC23C(=O)C=CC(=O)C2(C1)C(=O)c1ccccc1C3=O (stereo unspecified)

>  <growth inhibition [%]>
-16

$$$$
>  <MOLECULE>
O=[N+]([O-])c1ccc(/C=C\c2ccc3c(c2)OCO3)c([N+](=O)[O-])c1

>  <growth inhibition [%]>
2

$$$$
>  <MOLECULE>
O=[N+]([O-])c1cn[n+]([O-])c2ccccc12

>  <growth inhibition [%]>
34

$$$$
>  <MOLECULE>
CCOP(=O)(OCC)/C(C#N)=C/c1cccc(Oc2ccccc2)c1

>  <growth inhibition [%]>
56

$$$$
>  <MOLECULE>
CC/C(=C(\c1ccccc1)c1ccc(OCC[N+](C)(C)C)cc1)c1ccccc1

>  <growth inhibition [%]>
98

$$$$

---

- PROTOCOL: NCI Yeast Anticancer Drug Screen. Data for the sgs1 mgt1 strain (AID 161);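 note: 0% = growth of cultures given vehicle only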
- CONDITION PARAMETERS: S. cerevisiae sgs1 mgt1 strain, at 50.0 µM (retest, dose inferred, filed as 5.0), hits give high values
- Procedure: Growth inhibition of yeast strains with defined genetic alterations is measured as a screen for potential anti-cancer activity. Selected strains with alterations in DNA damage repair or cell cycle control were exposed to compounds and growth inhibition was measured relative to vehicle treated controls. The strain used in this assay is sgs1 mgt1
Compounds without any hit were thinned out: in the full panel of roughly 79,000, 15% have a hit.
Binary classification by growth inhibition, with 80% as an inclusive lower bound for 1; all other cases are 0.

>  <COMPOUND>
CCC(/C=C/c1ccccc1)=N\Nc1ccc(Cl)c(Cl)c1

>  <ASSIGNED CATEGORY>
0

$$$$
>  <COMPOUND>
NC(=O)NC1C(c2ccccc2)=C1c1ccccc1

>  <ASSIGNED CATEGORY>
0

$$$$
>  <COMPOUND>
O=C(c1cc(=O)c2ccc(O)cc2o1)c1ccc(Cl)cc1Cl

>  <ASSIGNED CATEGORY>
1

$$$$
>  <COMPOUND>
CCCCCCCC/C=C\CCCCCCCCN

>  <ASSIGNED CATEGORY>
1

$$$$
>  <COMPOUND>
O=C1C(/C=C/c2ccc(Cl)cc2)=NNC2N1N=C1NC(=O)C3(NN12)c1ccccc1-c1ccccc13 (centres undefined)

>  <ASSIGNED CATEGORY>
0

$$$$
>  <COMPOUND>
O=C1Oc2ccccc2C(=O)/C1=C/N1C(=O)N/C(=C\c2ccccc2Br)C1=O

>  <ASSIGNED CATEGORY>
0

$$$$
>  <COMPOUND>
CNC(=O)OCc1c(COC(=O)NC)c(C)n(-c2ccc(Br)cc2)c1C

>  <ASSIGNED CATEGORY>
0

$$$$
>  <COMPOUND>
O=C1C=C(NCCc2cc(Br)c(O)c(Br)c2)C(=O)c2ncccc21

>  <ASSIGNED CATEGORY>
1

$$$$
>  <COMPOUND>
O=C(O)c1cc2c(cc1S(=O)(=O)O)C1C(C3C2C2(Cl)C(Cl)=C(Cl)C3(Cl)C2(Cl)Cl)C2(Cl)C(Cl)=C(Cl)C1(Cl)C2(Cl)Cl (centres undefined)

>  <ASSIGNED CATEGORY>
1

$$$$
>  <COMPOUND>
S=C1N(c2ccc(Cl)cc2)C2=C(N=Nc3ccccc3)C(=Nc3ccccc3S2)N1c1ccccn1

>  <ASSIGNED CATEGORY>
1

$$$$
>  <COMPOUND>
COc1cccc(C(NC2=NCCC=N2)c2cc3c(cc2O)OCO3)c1O (centres undefined)

>  <ASSIGNED CATEGORY>
0

$$$$
>  <COMPOUND>
CCCCCCCCCCCCCCCCCCN(C)C(COC)COP(=O)([O-])OCC[N+](C)(C)C (centres undefined)

>  <ASSIGNED CATEGORY>
0

$$$$
>  <COMPOUND>
CC(C)OC(=O)NNc1c(Cl)cc(Cl)cc1Cl

>  <ASSIGNED CATEGORY>
0

$$$$

---

- PROTOCOL: NCI Yeast Anticancer Drug Screen. Data for the wt1 strain (AID 149);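 note: 0% = growth of vehicle-treated wt1 cultures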
- CONDITION PARAMETERS: S. cerevisiae wt1 strain (SPY 50644) growth inhibition; at 3.7 µM; hits give high values
The panel holds about 79,000 compounds, 15% with a hit somewhere; the sample as a whole holds those more often.

>  <COMPOUND>
N#CCC(=O)N/N=C(\c1ccccc1)C(c1ccccc1)C1(O)C(=O)Nc2c(Cl)ccc(Cl)c21 (centres undefined)

>  <growth inhibition [%]>
0

$$$$
>  <COMPOUND>
O=C1NC(c2cccc(OCc3ccccc3)c2)Nc2ccccc21 (centres undefined)

>  <growth inhibition [%]>
-20

$$$$
>  <COMPOUND>
COc1ccc2c(c1)CCCC(Br)C2=O (centres undefined)

>  <growth inhibition [%]>
0

$$$$
>  <COMPOUND>
CC1=CN2C(c3ccccc3)=NON(c3ccc(C)cn3)C2C=C1 (centres undefined)

>  <growth inhibition [%]>
-3

$$$$
>  <COMPOUND>
Cc1nc2sc3c(c2c(=O)o1)CCCC3

>  <growth inhibition [%]>
0

$$$$
>  <COMPOUND>
O=C(Cc1ccccc1)NN1C(=O)C(Cl)C1c1cc(Br)cc(Br)c1O (centres undefined)

>  <growth inhibition [%]>
-5

$$$$
>  <COMPOUND>
COc1ccc(C(C)c2cc3c(cc2OC(C)O)OCO3)cc1 (centres undefined)

>  <growth inhibition [%]>
-3

$$$$
>  <COMPOUND>
COc1cc(OC)c(CSCC(NC(=O)OCC2c3ccccc3-c3ccccc32)C(=O)O)c(OC)c1 (centres undefined)

>  <growth inhibition [%]>
9

$$$$
>  <COMPOUND>
CC1(C2CC2)C(C#N)(C#N)C1(C#N)C#N

>  <growth inhibition [%]>
-2

$$$$
>  <COMPOUND>
C1=CCN([B-](c2ccccc2)[C+]2CCCCC2)C=C1

>  <growth inhibition [%]>
-2

$$$$
>  <COMPOUND>
O=C1/C(=C/c2ccc(Cl)c(Cl)c2)CNC/C1=C\c1ccc(Cl)c(Cl)c1

>  <growth inhibition [%]>
25

$$$$
>  <COMPOUND>
CCN1CCC(O)(c2ccc(Oc3ccc(C)cc3)cc2)C(C(=O)c2ccc(Oc3ccc(C)cc3)cc2)C1 (centres undefined)

>  <growth inhibition [%]>
-31

$$$$
>  <COMPOUND>
COc1ccc(C(C)c2cc3c(cc2OCC(C)=O)OCO3)cc1 (centres undefined)

>  <growth inhibition [%]>
-3

$$$$
>  <COMPOUND>
CN1C(=O)C(CC(=O)O)NC1=S (centres undefined)

>  <growth inhibition [%]>
-2

$$$$
